# System: anti-CD28 Fab (SEQ ID NOs: 202, 203)
# Sequence (VH, as listed by the source, chain 1 of 2): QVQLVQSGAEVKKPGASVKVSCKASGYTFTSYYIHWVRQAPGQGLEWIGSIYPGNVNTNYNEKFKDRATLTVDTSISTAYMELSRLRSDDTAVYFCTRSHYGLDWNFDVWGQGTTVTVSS
# Sequence (VL, as listed by the source, chain 2 of 2): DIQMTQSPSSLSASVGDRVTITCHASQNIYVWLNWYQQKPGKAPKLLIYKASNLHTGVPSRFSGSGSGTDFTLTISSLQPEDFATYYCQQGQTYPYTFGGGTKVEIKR
# Measurement protocol: phage ELISA, Fab on plate, CD28 antigen as competitor;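 further: wells pre-incubated with CD28 antigen in blocking buffer (reference: blocking buffer only) before adding crude clonal phage supernatant, bound phage read with HRP-coupled anti-M13 antibody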
Answer each item with its documented Anti-CD28 Fab signal in the presence of CD28.
Numbers only.

binder="TCSAGATYTWPSCF [Phage-1125]" measured_value=0.06
binder="QCSAGATYAWPFCL [Phage-1168]" measured_value=0.08
binder="SCAAGAHWSWPVCF [Phage-1192]" measured_value=0.08

Consider the binder LCAAGATYPWPDCV [Phage-1188] and give its measured Anti-CD28 Fab signal in the presence of CD28.
0.05
